# Tested on: OVCAR-5 complex spheroids with HUVEC/MSC, viability, % test/control
# runDescription: Anticancer human tumor OVCAR-5 cell line growth inhibition [AhR];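 also: spheroids exposed to compounds for 7 days; 100% = DMSO vehicle control wells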
# reportedConditions: second compound 3.16 µM; first compound 0.0316 µM; stronger effect = lower value
Form field: viability, T/C (one value per entry).

>  <compound>
Cn1ncnc1C1c2n[nH]c(=O)c3cc(F)cc(c23)NC1c1ccc(F)cc1 (stereo not drawn) + CC(CO)NC(=O)c1cc(-c2ccc(Cl)cc2)nn(-c2cnn(C)c2)c1=O

>  <studyTarget>
OVCAR-5 complex spheroids with HUVEC/MSC, viability, % test/control

>  <viability, T/C>
101%

$$$$
>  <compound>
O=C(c1cc(Cc2n[nH]c(=O)c3ccccc23)ccc1F)N1CCN(C(=O)C2CC2)CC1 + Cc1cncc(-c2nc(NCCc3c[nH]c4ccccc34)c3ncn(C(C)C)c3n2)c1

>  <studyTarget>
OVCAR-5 complex spheroids with HUVEC/MSC, viability, % test/control

>  <viability, T/C>
78.2%

$$$$
>  <compound>
COc1cc(C2c3cc4c(cc3C(OC3OC5COC(C)OC5C(O)C3O)C3COC(=O)C23)OCO4)cc(OC)c1O (stereo not drawn) + CC(CO)NC(=O)c1cc(-c2ccc(Cl)cc2)nn(-c2cnn(C)c2)c1=O

>  <studyTarget>
OVCAR-5 complex spheroids with HUVEC/MSC, viability, % test/control

>  <viability, T/C>
98.9%

$$$$

====

# Test system: OVCAR-5 complex spheroids with HUVEC/MSC, viability, % test/control
# runDescription: Anticancer human tumor OVCAR-5 cell line growth inhibition [AhR];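 also: spheroids exposed to compounds for 7 days; 100% = DMSO vehicle control wells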
# reportedConditions: second compound 1 µM; first compound 0.0949 µM; stronger effect = lower value
t if viability, T/C is below 80%. f if not; exact matches included in f.

>  <compound>
CCN(c1cc(-c2ccc(CN3CCOCC3)cc2)cc(C(=O)NCc2c(C)cc(C)[nH]c2=O)c1C)C1CCOCC1 + Cc1ccccc1N=Nc1ccc(NC(=O)c2ccnn2C)c(C)c1

>  <studyTarget>
OVCAR-5 complex spheroids with HUVEC/MSC, viability, % test/control

>  <assignedLabel>
f

$$$$
>  <compound>
Nc1ncn(C2CC(O)C(CO)S2)c(=O)n1 (configuration not stated) + Cc1cncc(-c2nc(NCCc3c[nH]c4ccccc34)c3ncn(C(C)C)c3n2)c1

>  <studyTarget>
OVCAR-5 complex spheroids with HUVEC/MSC, viability, % test/control

>  <assignedLabel>
t

$$$$
>  <compound>
O=C(C=Cn1cnc(-c2cc(C(F)(F)F)cc(C(F)(F)F)c2)n1)NNc1cnccn1 + Cc1ccccc1N=Nc1ccc(NC(=O)c2ccnn2C)c(C)c1

>  <studyTarget>
OVCAR-5 complex spheroids with HUVEC/MSC, viability, % test/control

>  <assignedLabel>
f

$$$$
>  <compound>
Nc1ncn(C2CC(O)C(CO)S2)c(=O)n1 (configuration not stated) + Cc1ccccc1N=Nc1ccc(NC(=O)c2ccnn2C)c(C)c1

>  <studyTarget>
OVCAR-5 complex spheroids with HUVEC/MSC, viability, % test/control

>  <assignedLabel>
f

$$$$
>  <compound>
O=C(C=Cn1cnc(-c2cc(C(F)(F)F)cc(C(F)(F)F)c2)n1)NNc1cnccn1 + CC(CO)NC(=O)c1cc(-c2ccc(Cl)cc2)nn(-c2cnn(C)c2)c1=O

>  <studyTarget>
OVCAR-5 complex spheroids with HUVEC/MSC, viability, % test/control

>  <assignedLabel>
f

$$$$
>  <compound>
CCN(c1cc(-c2ccc(CN3CCOCC3)cc2)cc(C(=O)NCc2c(C)cc(C)[nH]c2=O)c1C)C1CCOCC1 + CC(CO)NC(=O)c1cc(-c2ccc(Cl)cc2)nn(-c2cnn(C)c2)c1=O

>  <studyTarget>
OVCAR-5 complex spheroids with HUVEC/MSC, viability, % test/control

>  <assignedLabel>
f

$$$$
>  <compound>
Nc1ncn(C2CC(O)C(CO)S2)c(=O)n1 (configuration not stated) + CC(CO)NC(=O)c1cc(-c2ccc(Cl)cc2)nn(-c2cnn(C)c2)c1=O

>  <studyTarget>
OVCAR-5 complex spheroids with HUVEC/MSC, viability, % test/control

>  <assignedLabel>
f

$$$$
>  <compound>
CC(C)CC(NC(=O)C(Cc1ccccc1)NC(=O)c1cnccn1)B(O)O (configuration not stated) + CC(CO)NC(=O)c1cc(-c2ccc(Cl)cc2)nn(-c2cnn(C)c2)c1=O

>  <studyTarget>
OVCAR-5 complex spheroids with HUVEC/MSC, viability, % test/control

>  <assignedLabel>
t

$$$$
>  <compound>
CCc1c2c(nc3ccc(O)cc13)-c1cc3c(c(=O)n1C2)COC(=O)[C@]3(O)CC + Cc1ccccc1N=Nc1ccc(NC(=O)c2ccnn2C)c(C)c1

>  <studyTarget>
OVCAR-5 complex spheroids with HUVEC/MSC, viability, % test/control

>  <assignedLabel>
t

$$$$
>  <compound>
CCN(c1cc(-c2ccc(CN3CCOCC3)cc2)cc(C(=O)NCc2c(C)cc(C)[nH]c2=O)c1C)C1CCOCC1 + Cc1cncc(-c2nc(NCCc3c[nH]c4ccccc34)c3ncn(C(C)C)c3n2)c1

>  <studyTarget>
OVCAR-5 complex spheroids with HUVEC/MSC, viability, % test/control

>  <assignedLabel>
f

$$$$
>  <compound>
CCc1c2c(nc3ccc(O)cc13)-c1cc3c(c(=O)n1C2)COC(=O)[C@]3(O)CC + Cc1cncc(-c2nc(NCCc3c[nH]c4ccccc34)c3ncn(C(C)C)c3n2)c1

>  <studyTarget>
OVCAR-5 complex spheroids with HUVEC/MSC, viability, % test/control

>  <assignedLabel>
t

$$$$
>  <compound>
CCc1c2c(nc3ccc(O)cc13)-c1cc3c(c(=O)n1C2)COC(=O)[C@]3(O)CC + CC(CO)NC(=O)c1cc(-c2ccc(Cl)cc2)nn(-c2cnn(C)c2)c1=O

>  <studyTarget>
OVCAR-5 complex spheroids with HUVEC/MSC, viability, % test/control

>  <assignedLabel>
t

$$$$
